Hey, just so you know, these numbers are from patent US20260216294A1.

Test system: L6-myotubes
assay-text: Measurement of intracellular cAMP levels in differentiated L6-myotubes (Biological Example 3)
Format: cell-based
settings: 0.25 h, intracellular cAMP; compound at 10 μM relative to isoproterenol at 10 μM
Listing of entries alongside the reported Emax at 10 µM.

INSERT INTO measurements (compound, reported) VALUES
  ('CC1(C)CCC[C@@H]([C@@H](O)c2cccc(F)c2)N1', '< 25%');

Requested read-out: Emax at 10 µM. Entry: CCCC(C)NCC(O)c1cc(Cl)c(O)c(Cl)c1 (stereo not shown)
< 25%

* * *

System: L6-myotubes
assay-text: Glucose uptake in differentiated L6-myotubes (Biological Example 2)
Assay type: cell-based
settings: glucose uptake in differentiated L6-myotubes; compound at 10 μM, activity relative to isoproterenol at 10 μM; read-out: Biological example 2 (GU)
observed-property: Emax at 10 µM

Requested read-out: Emax at 10 µM. Entry: "O[C@@H](c1cncc(F)c1)C12CCC(CCc3ccc(OC(F)(F)F)cc3)(CC1)N2"
< 25%

Requested read-out: Emax at 10 µM. Entry: "CO[C@@H]1CCC[C@H](C(C)(C)NC[C@H](O)c2cncc(F)c2)C1"
50 to 75%

* * *

Test system: L6-myotubes
assay-text: Glucose uptake in differentiated L6-myotubes (Biological Example 2)
Type: cell-based
settings: glucose uptake; compound at 10 μM relative to isoproterenol at 10 μM; read-out: Biological example 2 (GU)
observed-property: Emax at 10 µM

Examples with answers:
INSERT INTO assay_data (compound, system_name, reported) VALUES
  ('CC(C)(C)NC[C@H](O)c1ccc(F)cc1O [Compound 80]', 'L6-myotubes', '50 to 75%'),
  ('CC(C)(C)NC[C@H](O)c1ccccc1F [Compound 78]', 'L6-myotubes', '> 75%'),
  ('CC1(C)CC[C@H]([C@@H](O)c2cncc(F)c2)N1 [Compound 156]', 'L6-myotubes', '< 25%'),
  ('CC(C)(C)NCC(O)c1ccc(O)cc1 (centres unmarked) [Compound 4]', 'L6-myotubes', '> 75%'),
  ('CCC[C@@H]1CCC[C@H]([C@H](O)c2ccccc2F)N1 [Compound 97]', 'L6-myotubes', '50 to 75%'),
  ('CC1(C)CCC[C@H]([C@H](O)c2cccc(F)c2)N1 [Compound 102]', 'L6-myotubes', '50 to 75%');

Requested read-out: Emax at 10 µM. Entry: CCCCCCNCC(O)c1ccc(O)cc1 (centres unmarked) [Compound 17]
25 to 50%

Requested read-out: Emax at 10 µM. Entry: CCCCCCCCNCC(O)c1ccc(O)cc1 (centres unmarked) [Compound 18]
25 to 50%

Requested read-out: Emax at 10 µM. Entry: CCC[C@@H]1CCC[C@H]([C@H](O)c2cccc(F)c2)N1 [Compound 59]
25 to 50%

Requested read-out: Emax at 10 µM. Entry: CC1(C)CCC[C@@H]([C@H](O)c2ccccc2F)N1 [Compound 193]
> 75%

Requested read-out: Emax at 10 µM. Entry: CCCC(C)NCC(O)c1cc(Cl)c(O)c(Cl)c1 (centres unmarked) [Compound 25]
< 25%

* * *

Test system: L6-myotubes
assay-text: Glucose uptake in differentiated L6-myotubes (Biological Example 2)
Type: cell-based
settings: glucose uptake; compound at 10 μM relative to isoproterenol at 10 μM; read-out: Biological example 2 (GU)
observed-property: Emax at 10 µM

INSERT INTO assay_data (compound, reported) VALUES
  ('CCC[C@H]1CC[C@@H]([C@@H](O)c2cccc(F)c2)N1', '50 to 75%');

Requested read-out: Emax at 10 µM. Entry: CCCCNCC(O)c1cccc(Cl)c1 (centres unmarked)
25 to 50%

Requested read-out: Emax at 10 µM. Entry: CCCCNCC(O)c1ccc(F)c(F)c1 (centres unmarked)
50 to 75%

Requested read-out: Emax at 10 µM. Entry: "CC12CC(C1)[C@H]([C@H](O)c1cccc(F)c1)N2"
> 75%

* * *

System: L6-myotubes
assay-text: Glucose uptake in differentiated L6-myotubes (Biological Example 2)
Assay type: cell-based
settings: glucose uptake in differentiated L6-myotubes; compound at 10 μM, activity relative to isoproterenol at 10 μM; read-out: Biological example 2 (GU)
Listing of entries alongside the reported Emax at 10 µM.

INSERT INTO measurements (given_smiles, observed_property, reported) VALUES
  ('CS(=O)(=O)N(Cc1ccccc1)[C@H]1CC[C@H](C[C@@H]2CC[C@H]([C@H](O)c3cccc(F)c3)N2)CC1', 'Emax at 10 µM', '< 25%'),
  ('COc1ccc(C[C@@H]2CC[C@H]([C@@H](O)c3cccc(F)c3)N2)cc1', 'Emax at 10 µM', '> 75%'),
  ('O[C@@H](CNCC[C@H]1CC[C@H](O)CC1)c1cccc(F)c1', 'Emax at 10 µM', '25 to 50%'),
  ('CO[C@H]1CC[C@H](C[C@H]2CC[C@H]([C@@H](O)c3cccc(F)c3)N2)CC1', 'Emax at 10 µM', '25 to 50%'),
  ('CN([C@H]1CC[C@H](CC(C)(C)NC[C@H](O)c2cncc(F)c2)CC1)S(C)(=O)=O', 'Emax at 10 µM', '50 to 75%');

Continue with the compound presented below.
Requested read-out: Emax at 10 µM. Entry: "CC(C)(C[C@H]1CC[C@@H](NS(=O)(=O)C(F)(F)F)CC1)NC[C@H](O)c1cccc(F)c1"
25 to 50%

* * *

System: L6-myotubes
assay-text: Glucose uptake in differentiated L6-myotubes (Biological Example 2)
Format: cell-based
settings: glucose uptake in differentiated L6-myotubes; compound at 10 μM, activity relative to isoproterenol at 10 μM; read-out: Biological example 2 (GU)
observed-property: Emax at 10 µM

INSERT INTO assay_data (given_smiles, system_name, reported) VALUES
  ('CC(C)(CC[C@H]1CC[C@H](N)CC1)NC[C@H](O)c1cncc(F)c1', 'L6-myotubes', '25 to 50%'),
  ('CC(C)(NC[C@H](O)c1cccc(F)c1)[C@H]1CC[C@H](OCC(=O)O)CC1', 'L6-myotubes', '50 to 75%'),
  ('O[C@@H](CNC[C@H]1CC[C@H](OCc2ccccc2)CC1)c1cncc(F)c1', 'L6-myotubes', '25 to 50%');

Requested read-out: Emax at 10 µM. Entry: "COc1ccc(CCC23CCC([C@@H](O)c4cncc(F)c4)(CC2)N3)cc1"
< 25%

Requested read-out: Emax at 10 µM. Entry: "CC(C)(C[C@H]1CC[C@H](S(N)(=O)=O)CC1)NC[C@H](O)c1cccc(F)c1"
> 75%

Requested read-out: Emax at 10 µM. Entry: "CC(=O)N[C@H]1CC[C@H](CC(C)(C)NC[C@H](O)c2cccnc2C)CC1"
> 75%

* * *

Tested on: L6-myotubes
assay-text: Glucose uptake in differentiated L6-myotubes (Biological Example 2)
Assay type: cell-based
settings: glucose uptake in differentiated L6-myotubes; compound at 10 μM, activity relative to isoproterenol at 10 μM; read-out: Biological example 2 (GU)
observed-property: Emax at 10 µM

Examples with answers:
INSERT INTO measurements (compound, observed_property, reported) VALUES
  ('CS(=O)(=O)Nc1cccc(CC23CCC([C@@H](O)c4cccc(F)c4)(CC2)N3)c1 [Compound 514]', 'Emax at 10 µM', '50 to 75%'),
  ('COCC12CCC([C@H](O)c3cccc(F)c3)(CC1)N2 [Compound 330]', 'Emax at 10 µM', '> 75%'),
  ('CCOC(=O)CO[C@H]1CC[C@H](C(C)(C)NC[C@H](O)c2cncc(F)c2)CC1 [Compound 409]', 'Emax at 10 µM', '> 75%'),
  ('CO[C@H]1CC[C@H](C[C@@H]2CC[C@H]([C@H](O)c3cncc(F)c3)N2)CC1 [Compound 333]', 'Emax at 10 µM', '25 to 50%');

Requested read-out: Emax at 10 µM. Entry: CC(C)(CC[C@H]1CC[C@@H](O)CC1)NC[C@H](O)c1cccc(F)c1 [Compound 295]
> 75%

Requested read-out: Emax at 10 µM. Entry: CCCS(=O)(=O)N[C@H]1CC[C@@H](CC(C)(C)NC[C@H](O)c2cncc(F)c2)CC1 [Compound 523]
50 to 75%

Requested read-out: Emax at 10 µM. Entry: COC(=O)[C@H]1CC[C@H](CC(C)(C)NC[C@H](O)c2cccc(F)c2)CC1 [Compound 353]
> 75%

Requested read-out: Emax at 10 µM. Entry: COc1ccc(C[C@H]2CC[C@H]([C@H](O)c3cncc(F)c3)N2)cc1 [Compound 379]
> 75%

Requested read-out: Emax at 10 µM. Entry: CC(C)(NC[C@H](O)c1cncc(F)c1)[C@H]1CC[C@H](NS(C)(=O)=O)CC1 [Compound 345]
25 to 50%

Requested read-out: Emax at 10 µM. Entry: Cc1ncccc1[C@@H](O)CNC(C)(C)C [Compound 376]
> 75%

Requested read-out: Emax at 10 µM. Entry: CC12CC(C1)[C@H]([C@@H](O)c1cccc(Cl)c1)N2 [Compound 208]
50 to 75%

Requested read-out: Emax at 10 µM. Entry: O[C@@H](CNC[C@H]1CC[C@@H](O)CC1)c1cccc(F)c1 [Compound 268]
25 to 50%
